Assay: binding affinity was evaluated by measuring the ability to displace [3H]DPDPE radioligand binding from delta opioid receptor in guinea pig brain membranes
Ki strictly less than 40 nM = yes (1). Otherwise no (0).

Task: Would you kindly verify if Ki of CCO[C@@]12CCC(=O)CC13CCN(CC1CC1)C2Cc1ccc(O)c(OC)c13 (stereo not given in full) is strictly less than 40 nM?
Result: yes (1)

Task: Would you kindly verify if Ki of CCCCOc1c(O)ccc2c1C13CCN(CC4CC4)C(C2)[C@]1(OC)CCC(=O)C3 (stereo not given in full) is strictly less than 40 nM?
Result: no (0)

Task: Would you kindly verify if Ki of COc1c(O)ccc2c1C13CCN(CC4CC4)C(C2)[C@]1(O)CCC(=O)C3 (stereo not given in full) is strictly less than 40 nM?
Result: no (0)

Task: Would you kindly verify if Ki of COc1c(O)ccc2c1C13CCN(CC4CC4)C(C2)[C@]1(OC)CCC(=O)C3 (stereo not given in full) is strictly less than 40 nM?
Result: yes (1)

Task: Would you kindly verify if Ki of COc1cccc2c1[C@]13CCN(CC4CC4)[C@H](C2)[C@]1(OC)CCC(=O)C3 is strictly less than 40 nM?
Result: no (0)

Just for reference, BindingDB's records for doi:10.1021/jm00016a010 is where these values come from.
